Tested on: HS 578T breast
Test: NCI-60 one-dose screen, 48 h
Conditions: 10 µM
Compounds without any hit were thinned out: in the full panel of roughly 83,000, 20% have a hit. Calls of active or inactive are those of the source. The calls were made as follows: active = growth percent below 10; inactive = the rest.
Could you please pick one outcome from this set? TRUE (active), FALSE (inactive)

Kindly provide the recorded test outcome for the following compound: `COc1cccc(/C=N/N=C(N)N)c1`
FALSE

Kindly provide the recorded test outcome for the following compound: `COc1ccc(-c2nn(-c3cccc(Cl)c3)cc2/C=C2\C(=N)N(c3ccccc3)N=C2N)cc1`
FALSE

Kindly provide the recorded test outcome for the following compound: O=C(Nc1ccccc1)C(CCCCN1C(=O)c2ccccc2C1=O)N1C(=O)c2ccccc2C1=O (stereo not given)
FALSE

Kindly provide the recorded test outcome for the following compound: `CN1CCN(Cc2ccc(NC(=O)c3cccc(C#Cc4cnc(N)c5ncccc45)c3F)cc2C(F)(F)F)CC1`
FALSE

Kindly provide the recorded test outcome for the following compound: `COc1ccc2nc(C)cc(Nc3ccccc3O)c2c1`
TRUE

====

Tested on: SK-OV-3 ovarian
Assay: NCI-60 one-dose screen, 48 h (100 = growth as untreated, 0 = no growth, -100 = all killed)
Conditions: 10 µM unless noted
The panel holds about 83,000 compounds, 20% with a hit somewhere; the sample as a whole holds those more often.
REPORTED PROPERTY: growth (%)
The answer is to be given in %; state only the numeric part.

Supply growth value. Item: C=C(C)C1CCC2(C(=O)O)CCC3(C)C(CCC4C5(C)CCC(O)C(C)(C)C5CCC43C)C12 (stereo unspecified)
28

Supply growth value. Item: `CCCCCCCCCCCCCCCCOc1ccc(S(=O)(=O)N(C)C)cc1[N+](=O)[O-]`
79.2

Supply growth value. Item: `COc1cccc2nc(Nc3cccc(NC(=O)c4ccc(N5CCN(C)CC5)c(C(F)(F)F)c4)c3)ccc12`
81.7

Supply growth value. Item: CCC(=O)NC(O)C(Cl)(Cl)C(C)Cl (stereo unspecified)
107

Supply growth value. Item: `CC1=NOCC(=O)N1`
103

Supply growth value. Item: `COCCOCCOCc1n(Cc2ccc3ccccc3n2)c2ccccc2[n+]1Cc1ccc2ccccc2c1`
-6.91

Supply growth value. Item: COc1cc(C2=NOC(c3cc(OC)c(OC)c(OC)c3)C2)ccc1OCCCCOc1cc2c(cc1OC)C(=O)N1CCC[C@H]1C=N2 (stereo partly specified)
10.4

Supply growth value. Item: `CC1=C(O)C(=O)C(c2c(C)cc(C)c(Br)c2C)=C(O)C1=O`
88.3

Supply growth value. Item: `CCOc1ccc([C@@H]2[C@@H](Oc3ccccc3)C(=O)N2c2cc(OC)c(OC)c(OC)c2)cc1`
29.6

Supply growth value. Item: `NC(N)=N/N=C/c1ccccc1`
101

Supply growth value. Item: CCOc1c(C#N)c2c(N)ncnc2n1C1OC(CO)C(O)C1O (stereo unspecified)
52.9

====

System: ACHN renal
Assay: NCI-60 one-dose screen, 48 h (100 = growth as untreated, 0 = no growth, -100 = all killed)
Settings: 10 µM unless noted
Description: Growth inhibition of the ACHN human tumor cell line is measured as a screen for anti-cancer activity. Cells are grown in 96 well plates and exposed to the test compound for 48 hours. Compounds are tested at a single concentration, which is 10^-5 M for most compounds. The reported endpoint is percent growth (GI% or GIPRCNT), where numbers from 0 - 100% represent growth inhibition, and numbers from -100% - 0 represent cell death. For example, a value of 40 represents 60% growth inhibition. […]
About 83,000 compounds went through this panel and 20% of them were active in at least one assay; those are over-represented in the sample as a whole.
REPORTED PROPERTY: growth (%)
The answer is to be given in %; state only the numeric part.

Supply growth value. Item: `COc1ccc2[nH]c(C(=O)OCc3ccc4c(Br)cc(Br)c(O)c4n3)cc2c1`
-98.3

Supply growth value. Item: `CCCCn1c(C)nc2cc(Nc3nc(Cl)nc4nc[nH]c34)ccc21`
85.8

Supply growth value. Item: `CC(=O)O[C@H]1[C@H](CC#CC#CC[C@@H]2C[C@]3(C)[C@H]4CC=C5[C@H]6[C@@H](C)[C@H](C)CC[C@]6(C(=O)NCCN(CCN)CCN)CC[C@@]5(C)[C@]4(C)CC[C@H]3C(C)(C)[C@H]2OC(C)=O)C[C@]2(C)[C@H]3CC=C4[C@H]5[C@@H](C)[C@H](C)CC[C@]5(C(=O)NCCN(CCN)CCN)CC[C@@]4(C)[C@]3(C)CC[C@H]2C1(C)C`
75.9

Supply growth value. Item: `N#Cc1c(N)c(C(=O)c2ccc3c(c2)OCCO3)n2c1CCCC2`
39

Supply growth value. Item: `Cc1cc(C)cc(CCCCCCCCCCCCCCCCCC(=O)O)c1`
98.9

Supply growth value. Item: `Oc1c(-c2cc(C(F)(F)F)[nH]n2)cc(Cl)c(OCc2ccc(Cl)cc2)c1-c1ccc(Cl)c(C(F)(F)F)c1`
0.909

Supply growth value. Item: COc1cc(C2C=C(C)N=C3SC=NN32)cc(OC)c1OC (centres undefined)
102

Supply growth value. Item: CC1=C(C(=O)Nc2ccc(F)cc2)C(c2ccccc2)C2=C(CC(C)(C)CC2=O)N1 (centres undefined)
82.7

Supply growth value. Item: CCc1ccc2c(c1)N(CCO)C1=C(C(=O)OC1)C2c1cccc(Cl)c1 (centres undefined)
42

Supply growth value. Item: CCN(CC)CCCC(C)Nc1cnc(C(=O)Nc2cccc3ccc(OC)nc23)cn1 (centres undefined)
-86.5

Supply growth value. Item: `O=c1[nH]c2ccccc2n2cc3cccnc3c12`
49.1

Supply growth value. Item: Cc1cc(NC(=O)C2c3ccccc3C(=O)N(CC(C)C)C2c2cccs2)no1 (centres undefined)
0.299

Supply growth value. Item: `COc1ccc2[nH]c(C(=O)OCc3ccc4cccc(O)c4n3)cc2c1`
-98.4

Supply growth value. Item: `CC(=O)[C@H]1CC[C@H]2[C@@H]3CC[C@H]4CC=CC[C@]4(C)[C@H]3CC[C@]12C`
92.4

Supply growth value. Item: `O=C(Nc1ccc(Oc2ccc(Nc3nc4ccccc4s3)cc2)cc1)Nc1ccc(Cl)c(C(F)(F)F)c1`
3.09

Supply growth value. Item: `CCN(CC)c1ccc(C(=N)c2ccc(N(C)C)cc2)cc1`
30.1

Supply growth value. Item: `Cc1ccc(-c2cnc3sc4ccc(Cl)cc4n23)cc1`
92.2

Supply growth value. Item: CCN(CC)CCCC(C)Nc1cnc(C(=O)Nc2cc(C)cc3cccnc23)cn1 (centres undefined)
77.9

Supply growth value. Item: `Cc1cccc(C(=O)O)n1`
102
